- ASSAYED TARGET: IGF-1R (Homo sapiens (Human), UniProt P08069)
- Sequence (P08069 31-1367): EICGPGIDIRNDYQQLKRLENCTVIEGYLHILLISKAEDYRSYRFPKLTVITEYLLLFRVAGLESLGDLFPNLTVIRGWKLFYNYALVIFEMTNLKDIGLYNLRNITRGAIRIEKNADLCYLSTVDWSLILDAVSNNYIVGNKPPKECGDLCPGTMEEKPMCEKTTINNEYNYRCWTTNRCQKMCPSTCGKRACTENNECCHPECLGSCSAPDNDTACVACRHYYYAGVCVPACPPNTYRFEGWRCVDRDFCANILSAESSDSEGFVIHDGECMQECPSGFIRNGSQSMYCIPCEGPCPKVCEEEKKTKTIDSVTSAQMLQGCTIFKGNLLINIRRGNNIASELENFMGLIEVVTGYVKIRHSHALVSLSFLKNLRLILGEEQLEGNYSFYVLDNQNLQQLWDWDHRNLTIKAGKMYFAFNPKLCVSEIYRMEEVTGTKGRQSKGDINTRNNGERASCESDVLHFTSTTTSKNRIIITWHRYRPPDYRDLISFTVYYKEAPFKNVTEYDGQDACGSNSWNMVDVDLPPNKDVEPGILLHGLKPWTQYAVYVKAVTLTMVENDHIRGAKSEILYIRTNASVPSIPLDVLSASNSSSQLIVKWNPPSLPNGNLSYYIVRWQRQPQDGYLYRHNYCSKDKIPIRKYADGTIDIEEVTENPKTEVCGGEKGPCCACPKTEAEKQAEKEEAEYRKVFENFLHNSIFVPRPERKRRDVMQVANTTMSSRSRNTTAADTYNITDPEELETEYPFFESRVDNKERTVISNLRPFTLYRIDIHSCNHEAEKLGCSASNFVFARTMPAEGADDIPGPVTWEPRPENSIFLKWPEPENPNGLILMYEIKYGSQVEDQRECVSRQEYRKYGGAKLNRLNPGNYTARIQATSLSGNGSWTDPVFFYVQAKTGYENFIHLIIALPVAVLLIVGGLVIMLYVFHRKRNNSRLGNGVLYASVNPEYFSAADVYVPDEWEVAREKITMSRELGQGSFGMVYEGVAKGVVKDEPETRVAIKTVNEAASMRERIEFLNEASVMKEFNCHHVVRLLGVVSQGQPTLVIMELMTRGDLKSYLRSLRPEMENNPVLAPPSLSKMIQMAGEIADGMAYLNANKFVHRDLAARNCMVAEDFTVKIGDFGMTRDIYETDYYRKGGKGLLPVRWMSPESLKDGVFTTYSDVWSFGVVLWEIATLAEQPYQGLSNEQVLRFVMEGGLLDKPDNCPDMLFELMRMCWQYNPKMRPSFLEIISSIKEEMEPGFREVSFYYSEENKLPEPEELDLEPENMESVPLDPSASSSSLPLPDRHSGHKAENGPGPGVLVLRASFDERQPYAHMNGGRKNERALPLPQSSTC
- ASSAY SUMMARY: Example B-1: IGF-1R Assay (PC3 cells, IGF1 stimulation, AlphaLISA)
- Format: cell-based
- ASSAY CONDITIONS: 200 ng/mL IGF1 stimulation, read-out: Biological Activity against IGF-1R IC50
I'd appreciate it if you could supply IC50 values for the items below.

Query string: Look up IC50 for this compound: COc1cc(Nc2nccc(Nc3cc4cc(F)ccc4[nH]c3=O)n2)ccc1O[C@H]1C[C@@H](N(C)C)C1
Result string: ≤ 0.5 µM

Query string: And then COc1cc(Nc2nccc(Nc3cnc4c(Cl)cccc4c3)n2)ccc1OCCCN1CCOCC1 , what is it?
Result string: ≤ 0.5 µM

Query string: COc1cc(Nc2nccc(Nc3cc4cccc(F)c4[nH]c3=O)n2)cnc1N1CCC(C)(O)CC1 ?
Result string: ≤ 0.5 µM

Query string: Again, but for O=S1(=O)CCN([C@H]2C[C@H](Oc3ccc(Nc4nccc(Nc5cnc6c(Cl)cccc6c5)n4)cc3)C2)CC1
Result string: 0.5 to 2 µM

Query string: Check COc1cc(Nc2nccc(Nc3cnc4cc(Cl)cnc4c3)n2)cnc1O[C@H]1C[C@@H](N(C)C)C1 too.
Result string: 0.5 to 2 µM

Query string: Input COc1cc(O[C@H]2C[C@@H](N(C)C)C2)ccc1Nc1nccc(Nc2cnc3ccccc3c2)n1
Result string: ≤ 0.5 µM

Query string: Another compound to look at: COc1cc(Nc2nccc(Nc3ccc4c(c3)CCC(=O)N4)n2)ccc1OCCCN1CCCCC1
Result string: ≤ 0.5 µM

Query string: Next: COc1cc(Nc2nccc(Nc3cc4ccccc4nc3C(=O)O)n2)ccc1O[C@H]1C[C@@H](N(C)C)C1
Result string: > 10 µM

Query string: Queued: CN(C)CC(=O)N1CCc2ccc(Nc3nccc(Nc4cnc5cc(F)c(F)cc5c4)n3)cc21
Result string: 0.5 to 2 µM

Query string: Follow-up entry: COc1cc(Nc2nccc(Nc3cnc4ccccc4c3)n2)ccc1O[C@H]1C[C@@H](N2CCOCC2)C1
Result string: ≤ 0.5 µM

Query string: Let us now turn to COc1cc(Nc2nccc(Nc3cnc4c(c3)C3CCC4CC3)n2)ccc1OCCCN1CCCCC1
Result string: ≤ 0.5 µM

Query string: Please answer likewise for c1ccc2ncc(Nc3ccnc(Nc4ccc(O[C@H]5CC[C@@H](N6CCOCC6)CC5)cc4)n3)cc2c1
Result string: ≤ 0.5 µM

Query string: Proceed to COc1cc(Nc2nccc(Nc3cnc4c(Cl)cncc4c3)n2)ccc1O[C@H]1C[C@@H](N(C)C)C1
Result string: 0.5 to 2 µM

Query string: Same question for CN1CC2(Cc3ccc(Nc4nccc(Nc5cc6cccc(F)c6[nH]c5=O)n4)cc3O2)C1 please.
Result string: ≤ 0.5 µM

Query string: Another compound to check: COc1cc(Nc2nccc(Nc3cnc4cc(F)c(F)cc4c3)n2)cnc1N1CCOC(C)(C)C1
Result string: 0.5 to 2 µM
